All figures here come from the nanobody polyreactivity screen of Harvey et al. (2022).

experiment: yeast display, Sf9 membrane polyspecificity reagent, FACS + sequencing; frameworks hold sequencing errors
EXPERIMENTAL_READOUT: polyreactivity (PSR sort gate)

INPUT_SEQUENCE	VALUE
QVQRVESGGGLVQAGGSLRLTSAASGSTFGTNAMGWYRQAPGTERELVATISKSGGSTYYADSVKGRFTISRDNAKNTVYLQMNSLKPEANAVYYCARRYRDYGRYGYWGQGTEVTVSS	high polyreactivity
QVQLVESGGGLVQAGGSLRLSCEASGSTFYRYAMGWYRQAPGKERELVDAISSSGGSTYYADSVKGRFTISRDNAKNTVYLQMNSLKPEDTAVYYCNASYRVRRFDYWGQGTQVTVSS	low polyreactivity
QVQLLESGGGLVQAGGSLRLSCAASGYFFSDNTMGWYRQAPGKERELVAAITSGGSSYYADSVKGGFTISRDIAKNTVYLQMNSLKQEDTAVYYCDKDVLHVRRVSGQYYSVDYWGQGTQVTVSS	low polyreactivity
QVQLVESGGGLVQAGGSLRLSCASSGRTFPGNAMGWYRQAPGKERELVATISSGGTTNYADSVKGRFTISRDNAKNTVYLQMNSLKPDDTAFYYCATDTYHHKADYEYWGQGTQVTLSS	low polyreactivity
QVQLVESGGGLVQAGGSLRLSCAASGRTFYRYAMGLYRQAPRKERELVASITRGTSTNYADSVKGRFTISRDNAKNTVYLQMNSLKPEDTAVYYCNRRIFGGQRMYYWGQGTQVTVSS	high polyreactivity
QVQLVESGGGVVQAGGSLRLSCAASGSTLAGYAMGWYRPAPGKERELVAAIDWTGGSTTYADSVKGRFTISRDYAKNTVYLQMNCLKPDDTAVYSCNVVLGVNGDYWGQGCQVTVSS	low polyreactivity
QVQRVESGGGLVQAGGSLRLSCAASGFTLDYYTMGWYRQAPGKERELVAAISWIGTSTYYADSVKGRFTISRDNAKNTVYIQMNSLKPEDTAVYYCAAVGASVDDYYWGQGSQVTVSS	high polyreactivity
QVQLVESGVGLVQAAGSLRLSCAASGSTFSSYAMGWYRQAPGKERELVAVISSRGSRTYYADSVKGRFTNSRDNAKNSVYLLMNSLKPEDTAVYYCAARAVKQYGNSYESWGQGTQVTVSS	high polyreactivity

Quick one: polyreactivity (PSR sort gate) of QVQLVESGGGLVQAGGSLRLSCAASGFTFAYYAMGWYRQAPGKERELVAAISERGGSTYYADSVKGRFTISRDNAKNTVDLQMNSLKPEDTAVYYCARTFWDSPWYQSSYYSWGQGTQVTVSS ?
low polyreactivity

Quick one: polyreactivity (PSR sort gate) of QVQLQESGGGLVQAGGSLRLSCAASGYISSWYPMGSYRQAPGKEREFVATIAPGATTYYADSVKGRFTISRDYAKNTVYLQMNSLKPEDTAVYYCAAGPENNDFYSYGGQGTQVTVSS ?
low polyreactivity
